Test: Half life in human liver microsome
Format: ADME
Details: liver microsomes
Quantity measured: half-life

[[record]]
compound = "CN[C@H]1CC[C@@H](c2ccc(Cl)c(Cl)c2)c2ccc(S(N)(=O)=O)cc21"
quantity_measured = "half-life"
experimental_value = "> 2 h"


q: Would you mind telling me what half-life value was observed for CN[C@H]1CC[C@@H](c2ccc(Cl)c(Cl)c2)c2ccccc21 [SERTRALINE] ?
a: > 2 h

###

Test: Oral bioavailability in rat at 1 mg/kg, po
Type: ADME, organism-based
Conditions: in vivo
Quantity measured: bioavailability (%)
The reply should be a number in %, with the unit left off.

q: Would you mind telling me what bioavailability value was observed for CN[C@H]1CC[C@@H](c2ccc(Cl)c(Cl)c2)c2ccccc21 [SERTRALINE] ?
a: 51
